Just for reference, the array DNA melting data of Ke et al. (doi:10.1101/2024.01.08.574731) is where these values come from.

# key: entry, value: folding enthalpy
Test: folding enthalpy; higher = less favourable; fluorescence melt of hairpins on a sequencing array, two-state fit
Details: sodium 0.088 M
Write down the numeric answer in kcal/mol and omit the unit.

Field: example entries. Status: answers known.
GTAGTCCCGAAAGGGTAC (((..(((....)))))): -10.8
GGCTCCGAAAGGATGCC ((((((....))).))): -31
GGCACTCGAAAGAGAGCC (((.(((....))).))): -46.2

Find the recorded folding enthalpy belonging to GCTTGGCGAAAGCGGAGC (((..((....))..))) and report it.
-16.8

Find the recorded folding enthalpy belonging to GCACCCCCGAAAGGGTGC (((..(((....)))))) and report it.
-30.6

Find the recorded folding enthalpy belonging to GGCTGAGGAAACTTAGCC ((((.((....)).)))) and report it.
-36.3

Find the recorded folding enthalpy belonging to GCCCTCGAAAGAGTGGC ((((((....))).))) and report it.
-31.9

Find the recorded folding enthalpy belonging to GCCCGATCGAAAGATGGC (((..(((....)))))) and report it.
-23.6

Find the recorded folding enthalpy belonging to GATCAAGGGGTTGATC ((((((....)))))) and report it.
-29.4

Find the recorded folding enthalpy belonging to GATCTCAGCGGAGATC ((((((....)))))) and report it.
-38.3

Find the recorded folding enthalpy belonging to GATCTTATAAAGATC ((((((...)))))) and report it.
-29.4

Find the recorded folding enthalpy belonging to GCCGAGCGAAAGCATGGC (((..((....))..))) and report it.
-28.1

###

# key: entry, value: folding enthalpy
Experiment: folding enthalpy; higher = less favourable; fluorescence melt of hairpins on a sequencing array, two-state fit
Settings: sodium 0.088 M
Write down the numeric answer in kcal/mol and omit the unit.

Field: example entries. Status: answers known.
GGTCGGGGAAACCCAACC (((.(((....))).))): -27
GCCTGGCGAAAGCGAGGC ((((.((....)).)))): -26.8
GCTTTAGGAAACCAAAGC (((((.(....).))))): -28.3
GATCCCCAAGGGGATC ((((((....)))))): -37.4
GCTGCGCGAAAGCGAAGC (((.(((....))).))): -29.7

Find the recorded folding enthalpy belonging to GCATAGCGAAAGCTTAGC ((..(((....)))..)) and report it.
-16.2

Find the recorded folding enthalpy belonging to GACTACGGAAACGTAGCC (.(((((....))))).) and report it.
-14.1

Find the recorded folding enthalpy belonging to GATTACGAAAGTAAAATC ((((((....)))..))) and report it.
-17.6

Find the recorded folding enthalpy belonging to GATCAGGGACCTGATC ((((((....)))))) and report it.
-50.5

Find the recorded folding enthalpy belonging to GTTGGTGGAAACACCGAC ((.((((....)))).)) and report it.
-39

Find the recorded folding enthalpy belonging to GTTGAAGGAAACTTCAGC (.(((((....))))).) and report it.
-23

Find the recorded folding enthalpy belonging to GGCCACGGAAACGTGACC ((.((((....)))).)) and report it.
-37.9

Find the recorded folding enthalpy belonging to GCCGAGCGAAAGCTCCGC ((.((((....)))).)) and report it.
-18

Find the recorded folding enthalpy belonging to GGGTTAGGAAACTAGCCC (((.(((....))).))) and report it.
-24.3

Find the recorded folding enthalpy belonging to GTGGCCGAAAGGCGGCAC ((((((....)))..))) and report it.
-13.8

Find the recorded folding enthalpy belonging to GATCGGAGCCCCGATC ((((((....)))))) and report it.
-32.6

Find the recorded folding enthalpy belonging to GCGATGCGAAAGCGCCGC (((..((....))..))) and report it.
-30.5

Find the recorded folding enthalpy belonging to GCCAGAGGAAACTCTGAC (.(((((....))))).) and report it.
-18.3

Find the recorded folding enthalpy belonging to GGTCTCGAAAGAGCAACC ((((((....)))..))) and report it.
-14.2

Find the recorded folding enthalpy belonging to GGCCTGCGAAAGCATGCC (((.(((....))).))) and report it.
-28.2

Find the recorded folding enthalpy belonging to GGCTTTTCGAAAGAAGCC (((..(((....)))))) and report it.
-33.7

Find the recorded folding enthalpy belonging to GAGGTTGAAAAACCTC ((((((....)))))) and report it.
-32.6
